procedure_text: Quantitative high throughput screen for delayed death inhibitors of the malarial parasite plastid, 48 hour incubation.
condition_context: P. falciparum in erythrocytes, luciferase growth
From the text: NIH Molecular Libraries Probe Production Network [MLPCN] NIH Chemical Genomics Center [NCGC] MLPCN Grant: R21 NS059500 Assay Provider: David Fidock and Eric Ekland, Columbia University The goal of this screen is to discover new antimalarial compounds that act by inhibiting the development of the apicoplast in the malarial parasite Plasmodium falciparum. […] Growth inhibition is detected by a decrease in luciferase activity […]
Active and inactive are the calls of the source. Calls follow the shape of the dose curve; as a rule, active = well fitted inhibition curve with a large enough effect; inconclusive = small, poorly fitted or top-dose-only effect; inactive = flat fitted curve, though single readings scatter.
quantity_measured: Potency

Sample answers from the record:
C[C@@H]1CN([C@@H](C)CO[Si](C)(C)C(C)(C)C)C(=O)c2cc(NC(=O)Nc3ccccc3)ccc2O[C@@H](C)CCCCO[C@H]1CN(C)S(=O)(=O)c1ccc(F)cc1 : 1.1 nM (active)
C[C@@H]1CN(CCO)C(=O)c2cc(NC(=O)Nc3ccccc3)ccc2O[C@@H](C)CCCCO[C@H]1CN(C)S(=O)(=O)c1ccc(F)cc1 : 179 nM (active)
C[C@@H]1CN([C@@H](C)COC(=O)c2ccccc2)C(=O)c2cc(NC(=O)Nc3ccccc3)ccc2O[C@@H](C)CCCCO[C@H]1CN(C)C(=O)OC(C)(C)C : 400 nM (active)
C=CCOC(=O)N(C)C[C@H]1OCCCC[C@H](C)Oc2ccc(NC(=O)Nc3ccccc3)cc2C(=O)N([C@@H](C)CO[Si](C)(C)C(C)(C)C)C[C@H]1C : 283 nM (active)
COc1ccc(COCCN2C[C@@H](C)[C@H](CN(C)S(=O)(=O)c3ccc(F)cc3)OCCCC[C@H](C)Oc3ccc(NC(=O)Nc4ccccc4)cc3C2=O)cc1 : 100 nM (active)
C[C@@H]1CN([C@@H](C)CO)C(=O)c2cc(NC(=O)Nc3ccccc3)ccc2O[C@@H](C)C/C=C\CO[C@H]1CN(C)S(=O)(=O)c1ccc(F)cc1 : 356 nM (active)
C[C@@H]1CN([C@@H](C)CO)C(=O)c2cc(NC(=O)Nc3ccccc3)ccc2O[C@@H](C)CCCCO[C@H]1CN(C)Cc1ccc(C(F)(F)F)cc1 : 1000 nM (active)
C[C@@H]1CN([C@@H](C)CO)C(=O)c2cc(NC(=O)Nc3ccccc3)ccc2O[C@@H](C)C/C=C/CO[C@H]1CN(C)S(=O)(=O)c1ccc(F)cc1 : 142 nM (active)

*Q* What value of measured Potency is listed for "COCOC[C@H](C)N1C[C@@H](C)[C@H](CN(C)S(=O)(=O)c2ccc(F)cc2)OCCCC[C@H](C)Oc2ccc(NC(=O)Nc3ccccc3)cc2C1=O" ?
*A* 10 nM (active)

*Q* What Potency value was documented for this molecule, "C[C@@H]1CCCCO[C@@H](CN(C)Cc2ccc(F)cc2)[C@H](C)CN([C@@H](C)CO)C(=O)c2cc(NC(=O)Nc3ccccc3)ccc2O1" ?
*A* 4000 nM (active)

*Q* Could you share which Potency value was measured for "C=CCOC(=O)N(C)C[C@@H]1OCCCC[C@H](C)Oc2ccc(NC(=O)Nc3ccccc3)cc2C(=O)N([C@H](C)COC(=O)c2ccccc2)C[C@H]1C" ?
*A* 504 nM (active)

*Q* Potency for "C[C@@H]1CN([C@@H](C)CO)C(=O)c2cc(NC(=O)Nc3ccccc3)ccc2O[C@@H](C)CCCCO[C@H]1CN(C)S(=O)(=O)c1ccccc1F" ?
*A* 634 nM (active)

*Q* Given the entry "C[C@@H]1CN([C@@H](C)COC(C)(C)C)C(=O)c2cc(NC(=O)Nc3ccccc3)ccc2O[C@@H](C)CCCCO[C@H]1CN(C)S(=O)(=O)c1ccc(F)cc1" , report its measured Potency.
*A* 1.3 nM (active)

*Q* Param item = "C[C@@H]1CN([C@@H](C)CO)C(=O)c2cc(Nc3nc4ccccc4o3)ccc2O[C@@H](C)CCCCO[C@H]1CN(C)S(=O)(=O)c1ccc(F)cc1" ; retrieve measured Potency.
*A* 1590 nM (active)
